TESTED_ON: Histone deacetylase (Homo sapiens) (UniProt Q13547+O15379+Q9UBN7+Q92769+Q9UQL6+Q8WUI4+Q9BY41+Q96DB2+P56524+Q9UKV0+Q969S8)
DETAILS: at 100 µM;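 also: Cell-free test of HDAC enzyme taken from HeLa cell nuclear extracts, measuring how much its activity is blocked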
Description: In vitro inhibitory activity against histone deacetylase (HDAC) isolated from HeLa nuclear extract at a concentration of 100 uM
QUANTITY_MEASURED: inhibition (%)

MOLECULE: O=C(CCCCCCNC(=O)C(Cl)(Cl)Cl)Nc1ccccc1
QUANTITY_MEASURED: inhibition
VALUE_REPORTED: 4
//
MOLECULE: NNC(=O)NCCCCCCC(=O)Nc1ccccc1
QUANTITY_MEASURED: inhibition
VALUE_REPORTED: 18
//
MOLECULE: O=C(CBr)NCCCCCC(=O)Nc1ccccc1
QUANTITY_MEASURED: inhibition
VALUE_REPORTED: 78
//
MOLECULE: NNC(=O)NCCCCC(=O)Nc1ccccc1
QUANTITY_MEASURED: inhibition
VALUE_REPORTED: 12
//
MOLECULE: COC(=O)NCCCCCCC(=O)Nc1ccccc1
QUANTITY_MEASURED: inhibition
VALUE_REPORTED: 12
//
MOLECULE: O=C(CBr)NCCCCC(=O)Nc1ccccc1
QUANTITY_MEASURED: inhibition
VALUE_REPORTED: 47
//
MOLECULE: O=C(CCCCCCC(=O)Nc1nccs1)Nc1ccccc1
QUANTITY_MEASURED: inhibition
VALUE_REPORTED: 9
//
MOLECULE: C#CCNCCCCCCC(=O)Nc1ccccc1
QUANTITY_MEASURED: inhibition
VALUE_REPORTED: 16
//
MOLECULE: O=C(CCCCCCC(=O)Nc1ccccc1)NCCO
QUANTITY_MEASURED: inhibition
VALUE_REPORTED: 4
//
MOLECULE: C#CCN(CC#C)CCCCCCC(=O)Nc1ccccc1
QUANTITY_MEASURED: inhibition
VALUE_REPORTED: 8
//
MOLECULE: Nc1ccccc1NC(=O)CCCCCCC(=O)Nc1ccccc1
QUANTITY_MEASURED: inhibition
VALUE_REPORTED: 48
